Target: SA AgrC-II (Staphylococcus aureus)
Sequence (O33587 entry or part of it): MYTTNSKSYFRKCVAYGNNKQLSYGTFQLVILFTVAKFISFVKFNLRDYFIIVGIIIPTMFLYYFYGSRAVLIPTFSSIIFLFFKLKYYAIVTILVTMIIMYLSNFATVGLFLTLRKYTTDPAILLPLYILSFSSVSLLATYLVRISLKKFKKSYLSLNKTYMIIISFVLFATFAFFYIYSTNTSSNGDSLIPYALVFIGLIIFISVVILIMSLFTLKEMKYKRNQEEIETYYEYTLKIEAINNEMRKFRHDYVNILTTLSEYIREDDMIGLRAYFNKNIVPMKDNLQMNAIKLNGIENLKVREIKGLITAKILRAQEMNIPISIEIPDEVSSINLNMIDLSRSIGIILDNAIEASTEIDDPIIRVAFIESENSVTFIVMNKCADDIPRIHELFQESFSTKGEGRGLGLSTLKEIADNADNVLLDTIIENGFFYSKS
Experiment: β-Lactamase assay, reporter strain RN10829 (P2-agrA:P3-blaZ) with pagrC-II
Format: cell-based
Excerpt: The β-lactamase reporter strain RN10829 (P2-agrA:P3-blaZ) ([62]), with pagrC-I ([63]), pagrC-II, pagrC-III, or pagrC-IV ([11]), substituting the native agr locus with a chromosomal integration of P2-agrA and P3-blaZ and a plasmid from which a wild-type variant of the corresponding AgrC is expressed, was used to assess inhibition and activation of the AgrC receptor via β-lactamase activity in response to varying concentrations of the QS modulating peptides. […]
Positions of bridges follow the written chain, without caps; N, C: chain ends. Residues, ends and D or L forms follow the SMILES beside them.
assay endpoint: IC50 (nM)
Give bare numbers, in nM.

molecule="CC(C)C[C@H](NC(=O)[C@H](C)NC(=O)CNC(=O)[C@H](C)NC(=O)[C@@H](NC(=O)[C@H](C)N)[C@@H](C)O)C(=O)N1CCC[C@H]1C(=O)N[C@H]1CSC(=O)[C@H](Cc2ccccc2)NC(=O)[C@H](Cc2ccccc2)NC(=O)CNC(=O)CNC1=O [compound 23, S. succinus AIP-I] (H-ATAGALPCGGFF; thioester 8-C)" target_desc="SA AgrC-II (Staphylococcus aureus)" unit_text=nM readout_value=854

Now consider a different molecule.
Noted IC50 for NCCCC[C@H](N)C(=O)N[C@@H](Cc1ccc(O)cc1)C(=O)N[C@@H](Cc1ccc(O)cc1)C(=O)N1CCC[C@H]1C(=O)N[C@H]1CSC(=O)[C@H](Cc2ccccc2)NC(=O)[C@H](Cc2ccc(O)cc2)NC(=O)CNC(=O)[C@H](Cc2c[nH]c3ccccc23)NC1=O [compound 33, S. simulans AIP-II] (H-KYYPCWGYF; thioester 5-C) , tested on SA AgrC-II (Staphylococcus aureus): 80

* * *

Target: SA AgrC-IV (Staphylococcus aureus, UniProt Q309Z2)
Sequence (Q309Z2 entry or part of it): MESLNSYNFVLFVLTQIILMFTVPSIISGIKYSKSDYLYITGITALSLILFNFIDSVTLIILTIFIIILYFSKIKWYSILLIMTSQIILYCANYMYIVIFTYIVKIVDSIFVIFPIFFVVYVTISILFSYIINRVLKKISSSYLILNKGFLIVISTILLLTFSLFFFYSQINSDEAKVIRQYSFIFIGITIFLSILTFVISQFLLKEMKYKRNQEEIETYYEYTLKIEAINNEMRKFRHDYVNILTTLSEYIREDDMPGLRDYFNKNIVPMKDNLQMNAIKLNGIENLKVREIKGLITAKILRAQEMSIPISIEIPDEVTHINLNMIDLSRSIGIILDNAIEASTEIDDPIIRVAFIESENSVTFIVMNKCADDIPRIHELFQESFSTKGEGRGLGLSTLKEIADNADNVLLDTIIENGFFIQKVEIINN
Test: β-Lactamase assay, reporter strain RN10829 (P2-agrA:P3-blaZ) with pagrC-IV
Assay type: cell-based
Positions of bridges follow the written chain, without caps; N, C: chain ends. Residues, ends and D or L forms follow the SMILES beside them.
assay endpoint: pIC50
Numbers only, as −log10 of the molar value.

molecule="NCCCC[C@H](N)C(=O)N[C@@H](Cc1ccc(O)cc1)C(=O)N[C@@H](Cc1ccc(O)cc1)C(=O)N1CCC[C@H]1C(=O)N[C@H]1CSC(=O)[C@H](Cc2ccccc2)NC(=O)[C@H](Cc2ccc(O)cc2)NC(=O)CNC(=O)[C@H](Cc2c[nH]c3ccccc23)NC1=O [compound 33, S. simulans AIP-II] (H-KYYPCWGYF; thioester 5-C)" readout_value=6.56

Next molecule, please.
Here C[C@@H](O)[C@H](NC(=O)[C@H](CO)NC(=O)[C@@H](N)Cc1ccc(O)cc1)C(=O)N[C@H]1CSC(=O)[C@H](Cc2ccccc2)NC(=O)[C@H](Cc2ccc(O)cc2)NC(=O)[C@H](Cc2ccc(O)cc2)NC(=O)[C@H](CO)NC1=O [compound 20, S. caprae AIP-I] (H-YSTCSYYF; thioester 4-C) was tested on SA AgrC-IV (Staphylococcus aureus, UniProt Q309Z2), and its pIC50 came to 6.70

* * *

Molecular target: SA AgrC-III (Staphylococcus aureus, UniProt O33590)
Sequence (O33590 entry or part of it): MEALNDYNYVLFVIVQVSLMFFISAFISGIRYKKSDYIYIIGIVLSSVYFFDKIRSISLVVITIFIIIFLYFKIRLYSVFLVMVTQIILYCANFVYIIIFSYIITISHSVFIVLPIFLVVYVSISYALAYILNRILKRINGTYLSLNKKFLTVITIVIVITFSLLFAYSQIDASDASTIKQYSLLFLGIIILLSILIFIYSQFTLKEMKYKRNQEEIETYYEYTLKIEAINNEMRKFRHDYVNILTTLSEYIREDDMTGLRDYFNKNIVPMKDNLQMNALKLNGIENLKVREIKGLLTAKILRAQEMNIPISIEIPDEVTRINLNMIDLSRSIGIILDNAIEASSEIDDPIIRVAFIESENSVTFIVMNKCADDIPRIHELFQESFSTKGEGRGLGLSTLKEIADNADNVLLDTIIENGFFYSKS
Assay: β-Lactamase assay, reporter strain RN10829 (P2-agrA:P3-blaZ) with pagrC-III
Assay type: cell-based
Description: The β-lactamase reporter strain RN10829 (P2-agrA:P3-blaZ) ([62]), with pagrC-I ([63]), pagrC-II, pagrC-III, or pagrC-IV ([11]), substituting the native agr locus with a chromosomal integration of P2-agrA and P3-blaZ and a plasmid from which a wild-type variant of the corresponding AgrC is expressed, was used to assess inhibition and activation of the AgrC receptor via β-lactamase activity in response to varying concentrations of the QS modulating peptides. […]
Positions of bridges follow the written chain, without caps; N, C: chain ends. Residues, ends and D or L forms follow the SMILES beside them.
assay endpoint: IC50 (nM)
One number for each entry, in nM.

Lab note: C[C@H](N)C(=O)N[C@@H](CC(N)=O)C(=O)N1CCC[C@H]1C(=O)N[C@H]1CSC(=O)[C@H](Cc2ccccc2)NC(=O)[C@H](Cc2ccc(O)cc2)NC(=O)CNC(=O)[C@H](C)NC1=O [compound 21, S. pasteuri AIP-I] (H-ANPCAGYF; thioester 4-C) gave IC50 of 191

* * *

What IC50 was measured for each of the following?
Biological target: S. aureus agr-II (Staphylococcus aureus, UniProt O33587)
Sequence (O33587 entry or part of it): as the sequence (O33587 entry or part of it) above
Test: cell-based
Positions of bridges follow the written chain, without caps; N, C: chain ends. Residues, ends and D or L forms follow the SMILES beside them.
Numbers only, in nM.

Worked examples, 3 compounds total:
compound="CC(C)C[C@@H]1NC(=O)[C@@H](NC(=O)[C@@H]2CCCN2C(=O)[C@H](CC(N)=O)NC(=O)[C@H](Cc2ccc(O)cc2)NC(=O)[C@@H](N)CCCCN)CSC(=O)[C@H](CC(C)C)NC(=O)[C@H](Cc2ccccc2)NC(=O)CNC1=O [compound 32, S. simulans AIP-I] (H-KYNPCLGFL; thioester 5-C; N-terminus assumed)" unit_text=nM readout_value=0.31
compound="NCCCC[C@H](N)C(=O)N[C@@H](Cc1ccc(O)cc1)C(=O)N[C@@H](Cc1ccc(O)cc1)C(=O)N1CCC[C@H]1C(=O)N[C@H]1CSC(=O)[C@H](Cc2ccccc2)NC(=O)[C@H](Cc2ccc(O)cc2)NC(=O)CNC(=O)[C@H](Cc2c[nH]c3ccccc23)NC1=O [compound 33, S. simulans AIP-II] (H-KYYPCWGYF; thioester 5-C)" unit_text=nM readout_value=0.8
compound="CC[C@H](C)[C@@H]1NC(=O)[C@H](Cc2ccccc2)NC(=O)[C@H](CC(=O)O)NC(=O)[C@@H](NC(=O)[C@@H](NC(=O)[C@H](CO)NC(=O)[C@@H](N)Cc2ccc(O)cc2)[C@@H](C)O)CSC(=O)[C@H](CCSC)NC1=O [compound 1, S. aureus AIP-I] (H-YSTCDFIM; thioester 4-C)" unit_text=nM readout_value=5.8

// below: IC50 requested for another compound
Reading of IC50 for CC[C@H](C)[C@H](NC(=O)[C@@H](N)CC(=O)O)C(=O)N[C@H]1CSC(=O)[C@H](Cc2ccccc2)NC(=O)[C@H](Cc2ccc(O)cc2)NC(=O)[C@H](C)NC(=O)[C@H](CC(N)=O)NC1=O [compound 8, S. lugdunensis AIP-I] (H-DICNAYF; thioester 3-C; N-terminus assumed) with S. aureus agr-II (Staphylococcus aureus, UniProt O33587): 234

* * *

Target: SA AgrC-III (Staphylococcus aureus, UniProt O33590)
Assay: β-Lactamase assay, reporter strain RN10829 (P2-agrA:P3-blaZ) with pagrC-III
Assay type: cell-based
Positions of bridges follow the written chain, without caps; N, C: chain ends. Residues, ends and D or L forms follow the SMILES beside them.
assay endpoint: pIC50
Numbers only, as −log10 of the molar value.

molecule="CC(C)[C@H](NC(=O)[C@H](CC(N)=O)NC(=O)[C@H](Cc1ccc(O)cc1)NC(=O)[C@@H](N)CO)C(=O)N[C@H]1CSC(=O)[C@H](Cc2ccccc2)NC(=O)[C@H](Cc2ccc(O)cc2)NC(=O)CNC(=O)CNC1=O [compound 10, S. hominis AIP-I] (H-SYNVCGGYF; thioester 5-C; N-terminus assumed)" target_desc="SA AgrC-III (Staphylococcus aureus, UniProt O33590)" readout_value=6.47

Next molecule, pIC50 to be filled in.
// pIC50 value for CC[C@H](C)[C@H](NC(=O)[C@@H](N)CCCNC(=N)N)C(=O)N1CCC[C@H]1C(=O)N[C@H](C(=O)N[C@H]1COC(=O)[C@H](Cc2ccccc2)NC(=O)[C@H](Cc2ccccc2)NC(=O)CNC(=O)[C@H]([C@@H](C)O)NC1=O)[C@@H](C)O [compound 31, S. intermedius AIP-I] (H-RIPTSTGFF; ester 5-C) : 6.98

* * *

Please go through the items and note down their IC50.
Target: S. lugdunensis agr-I (Staphylococcus lugdunensis, UniProt Q8VSW5)
Sequence (Q8VSW5 entry or part of it): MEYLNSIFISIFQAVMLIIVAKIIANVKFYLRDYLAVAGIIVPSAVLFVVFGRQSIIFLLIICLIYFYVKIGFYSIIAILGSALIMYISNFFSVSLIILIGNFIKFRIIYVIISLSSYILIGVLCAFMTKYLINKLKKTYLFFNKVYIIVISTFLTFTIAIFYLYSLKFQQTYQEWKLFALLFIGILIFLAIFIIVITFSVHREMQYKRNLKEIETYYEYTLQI
Positions of bridges follow the written chain, without caps; N, C: chain ends. Residues, ends and D or L forms follow the SMILES beside them.
One number for each entry, in nM.

Examples from the recorded data:
compound="NCCCC[C@H](N)C(=O)N[C@@H](Cc1ccc(O)cc1)C(=O)N[C@@H](Cc1ccc(O)cc1)C(=O)N1CCC[C@H]1C(=O)N[C@H]1CSC(=O)[C@H](Cc2ccccc2)NC(=O)[C@H](Cc2ccc(O)cc2)NC(=O)CNC(=O)[C@H](Cc2c[nH]c3ccccc23)NC1=O [compound 33, S. simulans AIP-II] (H-KYYPCWGYF; thioester 5-C)" readout_value=1.2
compound="CC(C)C[C@@H]1NC(=O)[C@@H](NC(=O)[C@@H]2CCCN2C(=O)[C@H](CC(N)=O)NC(=O)[C@H](Cc2ccc(O)cc2)NC(=O)[C@@H](N)CCCCN)CSC(=O)[C@H](CC(C)C)NC(=O)[C@H](Cc2ccccc2)NC(=O)CNC1=O [compound 32, S. simulans AIP-I] (H-KYNPCLGFL; thioester 5-C; N-terminus assumed)" readout_value=113

Here's the next entry for you.
The compound NCCCC[C@H](N)C(=O)N[C@@H](Cc1ccc(O)cc1)C(=O)N[C@@H](CC(N)=O)C(=O)N1CCC[C@H]1C(=O)N[C@H]1CSC(=O)[C@H](Cc2ccccc2)NC(=O)[C@H](Cc2ccc(O)cc2)NC(=O)CNC(=O)[C@H](Cc2c[nH]c3ccccc23)NC1=O [compound 34, S. simulans AIP-III] (H-KYNPCWGYF; thioester 5-C) showed IC50 equal to 0.48
